B1: ZNF232 (parent)
chain: GKAYGWCSELIRHRRVHARKEPSH

Variants of: B1
Experiment: protein stability index of a GFP-peptide fusion (GPS, HEK-293T) (PSI 1-6); higher = more stable;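 further: lentivirally expressed fusions sorted by FACS into six bins by GFP to DsRed ratio, PSI derived from sequencing read proportions per bin multiplied by bin number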
Conditions: c terminus: a fixed tail appended
// protein stability index lookup, one value per entry

Change | protein stability index
V16K | 3.22
P22N | 2.98
V16A | 2.71
G1K | 2.75
Y4T | 3.19
R12H | 3.24
I11H | 3.31
H13D | 2.99
G5L | 1.72
C7D | 3.42
H17I | 2.51
A3E | 3.04
R15S | 3.36
S8V | 2.02
A3Y | 2.53
E21K | 3.15
V16G | 3.53
E9A | 2.74
C7M | 2.62
R19K | 2.82
L10G | 3.55
V16D | 3.49
E21C | 2.36
H17G | 3.57
H17W | 1.87
Y4R | 3.6
L10S | 3.4
H24V | 3.54
H13R | 3.53
E9M | 1.66
P22A | 3.39
R15N | 2.93
G1C | 2.73
G1P | 3.44
G1I | 2.72
G1M | 2.55
A18S | 3.37
R12C | 2.57
E9H | 3.25
S23P | 2.95
K2P | 3.44
R12D | 3.03
K2G | 3.54
I11Q | 4.02
Y4N | 3.83
V16N | 3.26
C7G | 3.89
S23T | 3.03
G5W | 2.14
R12P | 3.21
C7E | 3.67
Y4L | 2.76
H13C | 2.39
C7H | 3.37
H13N | 2.69
R14G | 2.72
R14V | 2.45
G5P | 3.25
H13K | 3.29
V16E | 3.16
R15K | 3
G5I | 2.29
I11G | 3.35
H24Y | 2.46
L10D | 3.5
I11E | 3.43
H24K | 3.55
Y4K | 3.62
K2M | 2.55
R12E | 3.54
A3L | 2.29
I11D | 3.9
Y4C | 2.2
S23L | 2.54
V16Y | 2.74
K20P | 2.62
K20Y | 1.86
G5T | 2.79
S23C | 2.58
P22H | 3.42
S8T | 3.25
C7W | 3.05
